Reference source: ChEMBL document CHEMBL2157928

Target: Peroxisome proliferator-activated receptor (Homo sapiens, UniProt P37231+Q07869+Q03181)
Test: Transactivation of PPAR transfected in human HepG2 cells after 20 hrs by luciferase reporter gene assay
Assay type: cell-based
Output satisfied for records whose EC50 is lower than 7 µM, not satisfied for records at or above 7 µM.

Quick check: EC50 of OC[C@H]1O[C@@H](O[C@H](CCc2ccc(O)c(O)c2)C[C@H](O)CCc2ccc(O)cc2)[C@H](O)[C@@H](O)[C@@H]1O under 7 µM?
satisfied

Quick check: EC50 of OC[C@H]1O[C@@H](O[C@@H]2C[C@H](CCc3ccc(O)c(O)c3)O[C@H](c3ccc(O)c(O)c3)C2)[C@H](O)[C@@H](O)[C@@H]1O [PLANTAGINEOSIDE C] under 7 µM?
satisfied

Quick check: EC50 of OC[C@H]1O[C@@H](O[C@H](CCc2ccc(O)c(O)c2)C[C@H](O)CCc2ccc(O)c(O)c2)[C@H](O)[C@@H](O)[C@@H]1O under 7 µM?
not satisfied

Quick check: EC50 of OC[C@H]1O[C@@H](Oc2ccc(CCCC[C@H](O)CCc3ccc(O[C@@H]4O[C@H](CO)[C@@H](O)[C@H](O)[C@H]4O)c(O)c3)cc2O)[C@H](O)[C@@H](O)[C@@H]1O [PLANTAGINEOSIDE B] under 7 µM?
not satisfied

Quick check: EC50 of OC[C@H]1O[C@@H](O[C@H](CCc2ccc(O)cc2)C[C@H](O)CCc2ccc(O)cc2)[C@H](O)[C@@H](O)[C@@H]1O under 7 µM?
satisfied
